Give measured αs1-I CN, 24 hours, 11° C. for each item. Keep answers brief.
Target: T1, alpha-s1 casein from Bos taurus
T1 chain: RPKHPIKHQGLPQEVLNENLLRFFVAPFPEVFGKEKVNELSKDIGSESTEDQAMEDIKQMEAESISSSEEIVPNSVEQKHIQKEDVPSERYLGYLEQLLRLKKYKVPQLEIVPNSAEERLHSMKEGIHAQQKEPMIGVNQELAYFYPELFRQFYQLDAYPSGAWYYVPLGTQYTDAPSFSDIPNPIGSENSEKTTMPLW
Your reply should be a number followed by the unit it is expressed in.

Protein	Property Label	Reading
camel chymosin variant #167 (I297V) (protein) GKVAREPLTSYLDSQYFGKIYIGTPPQEFTVVFDTGSSDLWVPSIYCKSNVCKNHHRFDPRKSSTFRNLGKPLSIHYGTGSMEGFLGYDTVTVSNIVDPNQTVGLSTEQPGEVFTYSEFDGILGLAYPSLASEYSVPVFDNMMDRHLVARDLFSVYMDRNGQGSMLTLGAIDPSYYTGSLHWVPVTLQQYWQFTVDSVTINGVAVACVGGCQAILDTGTSVLFGPSSDILKIQMAIGATENRYGEFDVNCGNLRSMPTVVFEINGRDYPLSPSAYTSKDQGFCTSGFQGDNNSELWVLGDVFIREYYSVFDRANNRVGLAKAI	αs1-I CN, 24 hours, 11° C.	2.29e+07 Volume

From here, focus on the item given below.
### Prompt Fill in reported αs1-I CN, 24 hours, 11° C. for this entry: camel chymosin variant #150 (Q288S) (protein) GKVAREPLTSYLDSQYFGKIYIGTPPQEFTVVFDTGSSDLWVPSIYCKSNVCKNHHRFDPRKSSTFRNLGKPLSIHYGTGSMEGFLGYDTVTVSNIVDPNQTVGLSTEQPGEVFTYSEFDGILGLAYPSLASEYSVPVFDNMMDRHLVARDLFSVYMDRNGQGSMLTLGAIDPSYYTGSLHWVPVTLQQYWQFTVDSVTINGVAVACVGGCQAILDTGTSVLFGPSSDILKIQMAIGATENRYGEFDVNCGNLRSMPTVVFEINGRDYPLSPSAYTSKDQGFCTSGFSGDNNSELWILGDVFIREYYSVFDRANNRVGLAKAI
### Response 2.31e+07 Volume
